Measured Target: recombinant PRL-1 (Homo sapiens)
Construct: 6xHis (N, cleaved yes); made in house; host or cells: E. coli One Shot BL21 Star
Sequence (Q93096 whole entry): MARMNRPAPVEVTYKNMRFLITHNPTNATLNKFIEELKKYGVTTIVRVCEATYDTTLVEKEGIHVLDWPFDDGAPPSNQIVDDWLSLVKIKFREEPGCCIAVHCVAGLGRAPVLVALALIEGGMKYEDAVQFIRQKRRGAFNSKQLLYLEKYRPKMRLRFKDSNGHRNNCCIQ
Procedure Text: In vitro phosphatase assay (DiFMUP hydrolysis), PRL-1; further: test concentration or dose not given here
Type: biochemical
Assay Conditions: FDA-approved drug screen; compared to DMSO
Counter-ions that a name gives are not always drawn.
Readings of % Phosphatase Activity (compared to DMSO) PRL-1 for the listed molecules
Assay Metric: % Phosphatase Activity (compared to DMSO) PRL-1 (%)

- Molecule: "CNS(=O)(=O)C[C@H]1CC[C@H](N(C)c2ncnc3[nH]ccc23)CC1 [Oclacitinib]"
  Scale Unit: "%"
  Endpoint Result: 98
- Molecule: "CC(C)(C)NCC(O)c1ccc(O)c(CO)c1.CC(C)(C)NCC(O)c1ccc(O)c(CO)c1.O=S(=O)(O)O (stereo not drawn) [Salbutamol Sulfate]"
  Scale Unit: "%"
  Endpoint Result: 94
- Molecule: "CCOC(=O)[C@H](CCc1ccccc1)N[C@@H](C)C(=O)N1Cc2cc(OC)c(OC)cc2C[C@H]1C(=O)O [Moexipril HCl]"
  Scale Unit: "%"
  Endpoint Result: 103
- Molecule: "COc1ccc(C(=O)CC(=O)c2ccc(C(C)(C)C)cc2)cc1 [Avobenzone]"
  Scale Unit: "%"
  Endpoint Result: 93
- Molecule: "CC[C@H]1OC(=O)[C@H](C)[C@@H](O[C@H]2C[C@@](C)(OC)[C@@H](O)[C@H](C)O2)[C@H](C)[C@@H](O[C@@H]2O[C@H](C)C[C@H](N(C)C)[C@H]2O)[C@](C)(O)C[C@@H](C)/C(=N\\OCOCCOC)[C@H](C)[C@@H](O)[C@]1(C)O [Roxithromycin]"
  Scale Unit: "%"
  Endpoint Result: 93
- Molecule: "CC(=O)O[C@]1(C(C)=O)CC[C@H]2[C@@H]3C=C(C)C4=CC(=O)CC[C@]4(C)[C@H]3CC[C@@]21C [Megestrol Acetate]"
  Scale Unit: "%"
  Endpoint Result: 86
- Molecule: "CN(C)CCOC(c1ccc(Cl)cc1)c1ccccn1.O=C(O)/C=C\\C(=O)O (stereo not drawn) [ArbinoxaMine Maleate]"
  Scale Unit: "%"
  Endpoint Result: 100
- Molecule: "CCOc1cc(CC(=O)N[C@@H](CC(C)C)c2ccccc2N2CCCCC2)ccc1C(=O)O [Repaglinide]"
  Scale Unit: "%"
  Endpoint Result: 96
- Molecule: "O=P1(NCCCl)OCCCN1CCCl (stereo not drawn) [Ifosfamide]"
  Scale Unit: "%"
  Endpoint Result: 100
- Molecule: "C=CC(=O)N1CCC(Oc2cc3c(Nc4ccc(Cl)c(Cl)c4F)ncnc3cc2OC)CC1 [Poziotinib (HM781-36B)]"
  Scale Unit: "%"
  Endpoint Result: 96
- Molecule: "CN1CCN(CCCN2c3ccccc3Sc3ccc(Cl)cc32)CC1.O=C(O)/C=C\\C(=O)O.O=C(O)/C=C\\C(=O)O [Prochlorperazine dimaleate salt]"
  Scale Unit: "%"
  Endpoint Result: 93
- Molecule: "COc1cc2nc(N(C)CCCNC(=O)C3CCCO3)nc(N)c2cc1OC (stereo not drawn) [Alfuzosin HCl]"
  Scale Unit: "%"
  Endpoint Result: 590
- Molecule: "OCCN(CCO)c1nc(N2CCCCC2)c2nc(N(CCO)CCO)nc(N3CCCCC3)c2n1 [Dipyridamole]"
  Scale Unit: "%"
  Endpoint Result: 182
- Molecule: "COc1ccc(C(Cl)=C(c2ccc(OC)cc2)c2ccc(OC)cc2)cc1 [Chlorotrianisene]"
  Scale Unit: "%"
  Endpoint Result: 103
- Molecule: "CNC(=O)c1ccc(N2C(=S)N(c3ccc(C#N)c(C(F)(F)F)c3)C(=O)C2(C)C)cc1F [Enzalutamide (MDV3100)]"
  Scale Unit: "%"
  Endpoint Result: 90

Data origin, for the record: paper PMC8119466
